B1: glmS ribozyme (parent)
chain: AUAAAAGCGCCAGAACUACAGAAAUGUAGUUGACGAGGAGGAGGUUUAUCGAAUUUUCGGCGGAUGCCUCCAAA

- Variants of: B1
- MEASUREMENT_NOTES: kcat; higher = faster cleavage; RNA array
- PROTOCOL_CONDITIONS: with glucosamine-6-phosphate
This sample holds only a part of the variants without activity.
Classify as follows. Reported kcat greater than or equal to 0.0002 s⁻¹: Fulfilled. Reported kcat below: Not fulfilled.

{"VARIANT_ANNOTATION": "A14U G38C", "LABEL_CLASS": "Not fulfilled"}
{"VARIANT_ANNOTATION": "G43C U45G", "LABEL_CLASS": "Fulfilled"}
{"VARIANT_ANNOTATION": "U45G C71A", "LABEL_CLASS": "Fulfilled"}
{"VARIANT_ANNOTATION": "A12U G44C", "LABEL_CLASS": "Fulfilled"}
{"VARIANT_ANNOTATION": "U56C A64U", "LABEL_CLASS": "Not fulfilled"}
{"VARIANT_ANNOTATION": "U46G C71G", "LABEL_CLASS": "Fulfilled"}
{"VARIANT_ANNOTATION": "A14U U54C C67U", "LABEL_CLASS": "Fulfilled"}
{"VARIANT_ANNOTATION": "A12U U45G", "LABEL_CLASS": "Fulfilled"}
{"VARIANT_ANNOTATION": "G40A U45A", "LABEL_CLASS": "Fulfilled"}
{"VARIANT_ANNOTATION": "G38U G66U", "LABEL_CLASS": "Not fulfilled"}
{"VARIANT_ANNOTATION": "A15G C16A C70U", "LABEL_CLASS": "Fulfilled"}
{"VARIANT_ANNOTATION": "A12G A39U", "LABEL_CLASS": "Fulfilled"}
{"VARIANT_ANNOTATION": "U56A", "LABEL_CLASS": "Fulfilled"}
{"VARIANT_ANNOTATION": "G29A U31G", "LABEL_CLASS": "Fulfilled"}
{"VARIANT_ANNOTATION": "U55A", "LABEL_CLASS": "Fulfilled"}
{"VARIANT_ANNOTATION": "G38U A64U", "LABEL_CLASS": "Not fulfilled"}
{"VARIANT_ANNOTATION": "C50A C67A", "LABEL_CLASS": "Not fulfilled"}
{"VARIANT_ANNOTATION": "G51A C71A", "LABEL_CLASS": "Not fulfilled"}
{"VARIANT_ANNOTATION": "G41U U55A", "LABEL_CLASS": "Not fulfilled"}
{"VARIANT_ANNOTATION": "A36U G38A", "LABEL_CLASS": "Not fulfilled"}
{"VARIANT_ANNOTATION": "A6C A53U", "LABEL_CLASS": "Not fulfilled"}
{"VARIANT_ANNOTATION": "A64U", "LABEL_CLASS": "Not fulfilled"}
